system: SNB-78; assay: NCI tumour cell line growth inhibition, 48 h
Active and inactive are the calls of the source. Cut-off read from the data, not from the text of the source: active = GI50 up to about 1.1 µM and inactive = higher.
Lab note: assign the record to one of active, inactive

Ask: For Cc1oc2c(C)c3oc(=O)cc(C)c3cc2c1CN1C(=O)C2OCCOCCOCCOCCOCCO[C@H]2C1=O (stereo not given in full) , which call appears in the assay record?
Result: inactive

Ask: For Cc1cccc(C)c1NC(=O)CCCC(=O)CC(=O)/C=C/c1ccccc1 , which call appears in the assay record?
Result: inactive

Ask: For O=C(O)[C@@H]1CCCC[C@@H]1C(=O)N(C1CCCCC1)C1CCCCC1 , which call appears in the assay record?
Result: inactive

Ask: For NCC(=O)OCN1C(=O)C2C3C=CC(C2C1=O)C1C2C(=O)N(COC(=O)CN)C(=O)C2C31 (stereo not given) , which call appears in the assay record?
Result: inactive

Ask: For CC(C)(C)C1(c2ccc(C3(c4ccccc4)Oc4ccccc4S3)[nH]2)Oc2ccccc2S1 (stereo not given) , which call appears in the assay record?
Result: inactive

Ask: For CN(C)CC(C)(C)C(=O)/C=C/c1ccccc1 , which call appears in the assay record?
Result: inactive

Ask: For O=C(/C=C/c1ccccc1Cl)NC1C=Nc2ccc([N+](=O)[O-])cc2NC1 (stereo not given) , which call appears in the assay record?
Result: inactive

Ask: For CCCCCCCCCCCCCCNCC(OC)OC , which call appears in the assay record?
Result: inactive

Ask: For O=C1N[C@@H]2CCCC[C@@H]2C12CCCCC2 , which call appears in the assay record?
Result: inactive

Ask: For COc1cc(/C=C2/C(=O)N(C(=O)c3ccccc3O)N=C2C)cc(OC)c1OC , which call appears in the assay record?
Result: active

Where these numbers come from: ChEMBL document CHEMBL1201862
